Target: Phospholipase A2, membrane associated (Homo sapiens) (UniProt P14555)
Sequence (whole entry): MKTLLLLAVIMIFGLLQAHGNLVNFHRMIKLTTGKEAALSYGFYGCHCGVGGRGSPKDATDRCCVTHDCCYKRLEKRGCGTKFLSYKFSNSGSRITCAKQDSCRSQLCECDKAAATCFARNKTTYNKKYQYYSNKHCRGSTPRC
Test: Inhibitory activity against human synovial fluid phospholipase A2 (HSF-PLA2)
Parameters: concentration or dose not given beside the values
Details: concentration not given here
parameterMeasured: inhibition (%)
Please respond with the number in % and leave the unit unwritten.

Worked set:
| compound | inhibition, % |
| --- | --- |
| CCCCCCCCCCCC(=O)NC(CCCCCC)COP(=O)(O)OCCCC (centres undefined) | 80 |
| CCCCCCCCCCS(=O)(=O)NC(CCCCCC)COP(=O)(O)OCCOCc1ccccc1 (stereo in doubt; form 2) | 36 |

Write down the reported inhibition of CCCCCCCCCCS(=O)(=O)NC(CCCCCC)COP(=O)(O)OCCO (stereo in doubt; form 2) , test system: Phospholipase A2, membrane associated (Homo sapiens) (UniProt P14555). 44

# get_value(readout= inhibition, system= Phospholipase A2, membrane associated (Homo sapiens) (UniProt P14555)) for CCCCCCCCCCS(=O)(=O)N[C@H](CCCCCC)COP(=O)(O)OCCOCc1ccccc1 (stereo in doubt; form 3) 74

API: value(readout=inhibition, system=Phospholipase A2, membrane associated (Homo sapiens) (UniProt P14555)) for record CCCCCCCCCCS(=O)(=O)NC(CCc1ccccc1)COP(=O)(O)OCCOCc1ccccc1 (centres undefined) 24

Provide value of inhibition for this record tested with Phospholipase A2, membrane associated (Homo sapiens) (UniProt P14555): CCCCCCCCCCCC(=O)NC(CCCCCC)COP(=O)(CCCC)OC (centres undefined) 24

API: value(readout=inhibition, system=Phospholipase A2, membrane associated (Homo sapiens) (UniProt P14555)) for record CCCCCCCCCCCC(=O)NC(CCCCCC)COP(=O)(O)OCCO (centres undefined) 61

Find inhibition (Phospholipase A2, membrane associated (Homo sapiens) (UniProt P14555)) for the entry CCCCCCCCCCS(=O)(=O)NC(CCCCCC)COP(=O)(O)OCCO (stereo in doubt; form 1) 49

Observed inhibition on Phospholipase A2, membrane associated (Homo sapiens) (UniProt P14555) for CCCCCCCCCCS(=O)(=O)NC(CCCCCC)COP(=O)(O)CCCC (centres undefined) , please. 30

Look up inhibition with Phospholipase A2, membrane associated (Homo sapiens) (UniProt P14555) for this compound: CCCCCCCCCCS(=O)(=O)NC(CCCCCC)COS(=O)(=O)CCCOCc1ccccc1 (centres undefined) 28

Under Phospholipase A2, membrane associated (Homo sapiens) (UniProt P14555): inhibition value of CCCCCCCCCCC(=O)NC(CCCCCC)COP(=O)(O)OCCN (centres undefined) ? 28

Given the entry CCCCCCCCCCS(=O)(=O)N[C@H](CCCCCC)COP(=O)(O)OCCOCc1ccccc1 (stereo in doubt; form 2) , what inhibition was observed with Phospholipase A2, membrane associated (Homo sapiens) (UniProt P14555)? 46

Reported inhibition for Phospholipase A2, membrane associated (Homo sapiens) (UniProt P14555), given CCCCCCCCOCC(COP(=O)(O)OCC[N+](C)(C)C)OP(=O)(O)CCCCCCC (centres undefined) ? 9

Hi! What's the reported inhibition for CCCCCCCCCCS(=O)(=O)NC(CCCCCC)COP(=O)(O)OCCN (centres undefined) on Phospholipase A2, membrane associated (Homo sapiens) (UniProt P14555)? 4

====

biological target: Phospholipase A2, membrane associated (Homo sapiens) (UniProt P14555); assay: Inhibitory activity against human synovial fluid phospholipase A2 (HSF-PLA2); design: concentration or dose not given beside the values; conditions: concentration not given here
parameterMeasured: inhibition (%)
Give the value, in units of %, as a plain number.

| compound | inhibition [%] |
| --- | --- |
| CCCCCCCCCCCC(=O)NC(CCCCCC)COP(=O)(O)OCCOCc1ccccc1 (stereo unspecified) | 6 |
| CCCCCCCCCCS(=O)(=O)NC(CCCCCC)COCC(F)(F)F (stereo unspecified) | 0 |
| CCCCCCCCCCCC(=O)NC(CCCCCC)COP(=O)(O)CCCC (stereo unspecified) | 45 |
| CCCCCCCCCCS(=O)(=O)CC(CCCCCC)COP(=O)(O)OCCOCc1ccccc1 (stereo in doubt; form 1) | 29 |
| CCCCCCCCCCS(=O)(=O)CC(CCCCCC)COP(=O)(O)OCCOCc1ccccc1 (stereo in doubt; form 2) | 79 |

Switching to the query record.
Reported inhibition for Phospholipase A2, membrane associated (Homo sapiens) (UniProt P14555), given CCCCCCCCCCS(=O)(=O)NC(CCCCCC)COP(=O)(O)OCCCC (stereo unspecified) ? 0

====

Target: Phospholipase A2, membrane associated (Homo sapiens) (UniProt P14555)
Sequence (whole entry): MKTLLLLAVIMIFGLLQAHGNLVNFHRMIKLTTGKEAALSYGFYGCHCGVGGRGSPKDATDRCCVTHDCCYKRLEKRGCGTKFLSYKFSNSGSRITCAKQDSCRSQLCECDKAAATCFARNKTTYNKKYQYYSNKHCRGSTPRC
Experiment: Inhibitory activity against human synovial fluid phospholipase A2 (HSF-PLA2)
Parameters: concentration or dose not given beside the values
Conditions: concentration not given here
parameterMeasured: inhibition (%)
API: value field is a number in %; no unit string.

Enter reported inhibition observed with Phospholipase A2, membrane associated (Homo sapiens) (UniProt P14555) for CCCCCCCCCCS(=O)(=O)N[C@H](CCCCCC)COP(=O)(O)OCCO 40

Phospholipase A2, membrane associated (Homo sapiens) (UniProt P14555) / inhibition / CCCCCCCCOCC(COP(=O)(O)OCCN)OP(=O)(O)CCCCCCC (stereo not given) : value? 33

Which inhibition is reported with Phospholipase A2, membrane associated (Homo sapiens) (UniProt P14555) for this entry: CCCCCCCCCCS(=O)(=O)N[C@H](CCCCCC)COP(=O)(O)OCCOCc1ccccc1 (stereo in doubt; form 1) ? 45

# query: inhibition | item CCCCCCCCCCS(=O)(=O)NC(CCCCCC)COP(=O)(O)OCCOCc1ccccc1 (stereo in doubt; form 1) | system: Phospholipase A2, membrane associated (Homo sapiens) (UniProt P14555) 12

Notebook entry, Phospholipase A2, membrane associated (Homo sapiens) (UniProt P14555) assay: inhibition of CCCCCCCCCCCC(=O)NC(CCCCCC)COP(=O)(O)OCC(N)C(=O)O (stereo not given) = ? 31
